Would you kindly list log2 fold change of degron read counts for each of these sequences?
- assay_target: T1, CRBN, Q96SW2;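 further: pooled lentiviral library of zinc finger degron-EGFP fusions in mCherry-positive Jurkat cells, FACS-sorted after compound exposure, with degron abundance counted by next-generation sequencing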
- T1 chain: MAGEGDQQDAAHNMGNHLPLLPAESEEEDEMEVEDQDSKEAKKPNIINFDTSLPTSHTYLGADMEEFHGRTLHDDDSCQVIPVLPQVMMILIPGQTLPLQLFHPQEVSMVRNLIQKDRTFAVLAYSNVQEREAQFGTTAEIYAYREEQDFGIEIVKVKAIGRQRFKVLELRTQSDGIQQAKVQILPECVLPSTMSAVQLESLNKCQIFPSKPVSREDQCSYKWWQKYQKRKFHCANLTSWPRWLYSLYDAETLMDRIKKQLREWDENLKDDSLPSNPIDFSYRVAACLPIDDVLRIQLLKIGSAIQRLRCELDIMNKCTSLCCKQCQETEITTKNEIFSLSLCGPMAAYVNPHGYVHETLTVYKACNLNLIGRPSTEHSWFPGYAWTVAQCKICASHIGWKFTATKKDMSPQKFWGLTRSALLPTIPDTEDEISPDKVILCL
- assay_remarks: log2 fold change of degron read counts, EGFP-low vs EGFP+ sorted cells (limma voom), compound-induced degradation; higher = more compound-induced degradation of the degron-EGFP fusion; degrons are variants of IKZF1/3 zinc finger 2; compound dose not given here
- study_conditions: Jurkat; 18 h; compound: compound 19 (5-tert-butyl-thalidomide)
Over roughly 8,300 sequences, “log2 fold change of degron read counts, EGFP-low vs EGFP+ sorted cells (limma voom), compound-induced degradation” has its median near -1.1; the highest 2% begin near 3.2. What follows is part of a selection rich in the highest values, with near analogues and random picks from the rest.
Could you respond with only the numeric value?

Give reported log2 fold change of degron read counts value for LYCPICGFYCTQKGNLLRHIKL [46L_47Y_49P_50I_52G_53F_54Y_55C_67L_, Q9UKT9]
3.22

# return recorded log2 fold change of degron read counts for entry FCCPVCGASFTQKGNLLRHIKL [46F_47C_49P_50V_52G_53A_54S_55F_67L_, Q9UKT9]
3.07

Look up and report measured log2 fold change of degron read counts for this entry: FWCPVCGASFTQKGNLLRHIKL [46F_47W_49P_50V_52G_53A_54S_55F_67L_, Q9UKT9]
3.31

Note log2 fold change of degron read counts for the sequence shown: FYCPVCGASFTQKGNLLRHIKL [46F_47Y_49P_50V_52G_53A_54S_55F_67L_, Q9UKT9]
3.09

Every entry's value here was drawn from the supplement of paper PMC12645437.
